target: Prostaglandin G/H synthase 1 (Ovis aries) (UniProt P05979); assay: Inhibition of ovine COX1 assessed as PGE2 formation at 10 ug/ml by LC-MS-MS analysis
Sequence (P05979 whole entry): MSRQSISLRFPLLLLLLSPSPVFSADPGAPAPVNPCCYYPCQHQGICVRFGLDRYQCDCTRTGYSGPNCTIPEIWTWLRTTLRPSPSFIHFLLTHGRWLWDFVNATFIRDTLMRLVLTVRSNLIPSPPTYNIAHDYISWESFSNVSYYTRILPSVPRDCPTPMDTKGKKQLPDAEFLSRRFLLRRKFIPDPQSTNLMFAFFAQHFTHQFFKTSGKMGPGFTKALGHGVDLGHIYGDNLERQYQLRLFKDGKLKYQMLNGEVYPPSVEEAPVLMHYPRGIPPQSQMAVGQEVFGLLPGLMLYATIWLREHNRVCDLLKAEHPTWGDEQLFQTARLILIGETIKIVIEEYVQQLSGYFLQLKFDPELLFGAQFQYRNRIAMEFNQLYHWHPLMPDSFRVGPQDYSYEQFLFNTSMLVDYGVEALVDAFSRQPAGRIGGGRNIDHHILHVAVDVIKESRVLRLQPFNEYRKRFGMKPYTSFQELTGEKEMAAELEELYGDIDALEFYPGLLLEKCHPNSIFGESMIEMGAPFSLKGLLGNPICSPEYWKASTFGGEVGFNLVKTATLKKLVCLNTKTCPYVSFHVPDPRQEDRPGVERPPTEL
Calls of active or inactive are those of the source. The rule behind the calls is not given here.

>  <Compound>
O=C(/C=C/c1ccc(O)c(O)c1)O[C@H]1[C@H](O)[C@@H](O[C@@H]2OC[C@](O)(CO)[C@H]2O)[C@H](OCCc2ccc(O)cc2)O[C@@H]1CO

>  <inhibition>
inactive

$$$$
>  <Compound>
COc1cc([C@@H](O)[C@@H](CO)Oc2ccc(/C=C/CO)cc2OC)ccc1O (relative stereo)

>  <inhibition>
inactive

$$$$
>  <Compound>
COc1c(-c2ccc(O)cc2)oc2cc(O[C@@H]3O[C@H](CO)[C@@H](O)[C@H](O)[C@H]3O)cc(O)c2c1=O

>  <inhibition>
inactive

$$$$
>  <Compound>
O=C(/C=C/c1ccc(O)c(O)c1)O[C@H]1[C@H](O)[C@@H](CO)O[C@@H](OCCc2ccc(O)cc2)[C@@H]1O[C@@H]1OC[C@](O)(CO)[C@H]1O

>  <inhibition>
inactive

$$$$
>  <Compound>
COc1c(-c2ccc(O)cc2)oc2cc(O[C@@H]3O[C@H](CO[C@@H]4O[C@@H](C)[C@H](O)[C@@H](O)[C@H]4O)[C@@H](O)[C@H](O)[C@H]3O)cc(O)c2c1=O

>  <inhibition>
inactive

$$$$
>  <Compound>
O=c1c(O[C@@H]2O[C@H](CO)[C@@H](O)[C@H](O)[C@H]2O)c(-c2ccc(O)c(O)c2)oc2cc(O)cc(O)c12

>  <inhibition>
inactive

$$$$
>  <Compound>
COc1c(-c2ccc(O)c(O)c2)oc2cc(O[C@@H]3O[C@H](CO)[C@@H](O)[C@H](O)[C@H]3O)cc(O)c2c1=O [TRANSILIN]

>  <inhibition>
inactive

$$$$
>  <Compound>
OC[C@H]1O[C@@H](OCCc2ccc(O)c(O)c2)[C@H](O)[C@@H](O)[C@@H]1O

>  <inhibition>
inactive

$$$$
>  <Compound>
COc1c(-c2ccc(O)cc2)oc2cc(O[C@@H]3O[C@H](CO[C@@H]4O[C@@H](CO)[C@H](O)[C@H]4O)[C@@H](O)[C@H](O)[C@H]3O)cc(O)c2c1=O

>  <inhibition>
inactive

$$$$
>  <Compound>
O=C(/C=C/c1ccc(O)c(O)c1)OC[C@H]1O[C@@H](OCCc2ccc(O)c(O)c2)[C@H](O[C@@H]2OC[C@](O)(CO)[C@H]2O)[C@@H](O)[C@@H]1O

>  <inhibition>
inactive

$$$$
>  <Compound>
O=c1ccn([C@@H]2O[C@H](CO)[C@@H](O)[C@@H]2O)c(=O)[nH]1

>  <inhibition>
inactive

$$$$
>  <Compound>
O=C(/C=C/c1ccc(O)c(O)c1)O[C@H]1[C@H](O)[C@@H](O[C@@H]2OC[C@](O)(CO)[C@H]2O)[C@H](OCCc2ccc(O)c(O)c2)O[C@@H]1CO [FUCATOSIDE A]

>  <inhibition>
inactive

$$$$
>  <Compound>
O=C(/C=C/c1ccc(O)c(O)c1)O[C@H]1[C@H](O)[C@@H](CO)O[C@@H](OCCc2ccc(O)c(O)c2)[C@@H]1O[C@@H]1OC[C@](O)(CO)[C@H]1O

>  <inhibition>
inactive

$$$$
>  <Compound>
O=C(/C=C/c1ccc(O)c(O)c1)OC[C@H]1O[C@@H](OCCc2ccc(O)c(O)c2)[C@H](O)[C@@H](O)[C@@H]1O [CALCEOLARIOSIDE B]

>  <inhibition>
inactive

$$$$
>  <Compound>
COc1c(-c2ccc(O)c(O)c2)oc2cc(O[C@@H]3O[C@H](CO[C@@H]4O[C@@H](C)[C@H](O)[C@@H](O)[C@H]4O)[C@@H](O)[C@H](O)[C@H]3O)cc(O)c2c1=O

>  <inhibition>
inactive

$$$$

* * *

target: Prostaglandin G/H synthase 2 (Homo sapiens); experiment: Inhibition of human COX2 assessed as PGE2 formation at 10 ug/ml by LC-MS-MS analysis
Calls of active or inactive are those of the source. The rule behind the calls is not given here.
Assay readout: inhibition

>  <Compound>
O=c1ccn([C@@H]2O[C@H](CO)[C@@H](O)[C@@H]2O)c(=O)[nH]1

>  <Recorded result>
inactive

$$$$
>  <Compound>
COc1cc([C@@H](O)[C@@H](CO)Oc2ccc(/C=C/CO)cc2OC)ccc1O (relative stereo)

>  <Recorded result>
inactive

$$$$
>  <Compound>
COc1c(-c2ccc(O)cc2)oc2cc(O[C@@H]3O[C@H](CO[C@@H]4O[C@@H](C)[C@H](O)[C@@H](O)[C@H]4O)[C@@H](O)[C@H](O)[C@H]3O)cc(O)c2c1=O

>  <Recorded result>
inactive

$$$$

* * *

assay: Inhibition of TNF-alpha-induced NFkappaB activation in human HEK293 cells after 6 hrs by luciferase reporter gene assay; type: cell-based; details: HEK293, 6 h

>  <Structure string>
Cc1ccc(S(=O)(=O)N[C@@H](Cc2ccccc2)C(=O)CCl)cc1

>  <IC50 (µM)>
3.76

$$$$

* * *

target: Prostaglandin G/H synthase 2 (Homo sapiens) (UniProt P35354); test: Inhibition of human COX2 assessed as PGE2 formation at 10 ug/ml by LC-MS-MS analysis
Calls of active or inactive are those of the source. No cut-off for these calls is given here.

>  <Compound>
O=c1c(O[C@@H]2O[C@H](CO)[C@@H](O)[C@H](O)[C@H]2O)c(-c2ccc(O)c(O)c2)oc2cc(O)cc(O)c12

>  <inhibition>
inactive

$$$$
>  <Compound>
COc1c(-c2ccc(O)c(O)c2)oc2cc(O[C@@H]3O[C@H](CO)[C@@H](O)[C@H](O)[C@H]3O)cc(O)c2c1=O [TRANSILIN]

>  <inhibition>
inactive

$$$$
>  <Compound>
O=C(/C=C/c1ccc(O)c(O)c1)OC[C@H]1O[C@@H](OCCc2ccc(O)c(O)c2)[C@H](O)[C@@H](O)[C@@H]1O [CALCEOLARIOSIDE B]

>  <inhibition>
inactive

$$$$

* * *

Molecular target: Prostaglandin G/H synthase 2 (Homo sapiens) (UniProt P35354)
Sequence (whole entry): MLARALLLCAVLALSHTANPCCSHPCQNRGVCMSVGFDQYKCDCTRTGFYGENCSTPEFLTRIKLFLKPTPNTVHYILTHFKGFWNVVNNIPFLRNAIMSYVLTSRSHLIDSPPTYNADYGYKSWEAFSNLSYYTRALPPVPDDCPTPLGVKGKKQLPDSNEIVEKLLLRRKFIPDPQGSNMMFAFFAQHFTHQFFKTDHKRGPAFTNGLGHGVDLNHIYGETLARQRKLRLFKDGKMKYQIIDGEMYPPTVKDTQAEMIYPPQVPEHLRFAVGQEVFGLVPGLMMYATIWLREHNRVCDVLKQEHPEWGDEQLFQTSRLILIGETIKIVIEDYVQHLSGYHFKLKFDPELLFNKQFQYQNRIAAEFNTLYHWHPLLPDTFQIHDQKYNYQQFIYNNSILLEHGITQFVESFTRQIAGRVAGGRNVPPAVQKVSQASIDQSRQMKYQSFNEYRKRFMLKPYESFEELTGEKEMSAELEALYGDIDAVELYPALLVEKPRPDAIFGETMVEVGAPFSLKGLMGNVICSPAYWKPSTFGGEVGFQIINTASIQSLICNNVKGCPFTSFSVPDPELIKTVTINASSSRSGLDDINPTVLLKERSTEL
Experiment: Inhibition of human COX2 assessed as PGE2 formation at 10 ug/ml by LC-MS-MS analysis
Activity calls are given as the source filed them. No cut-off for these calls is given here.

>  <Structure string>
COc1c(-c2ccc(O)c(O)c2)oc2cc(O[C@@H]3O[C@H](CO[C@@H]4O[C@@H](C)[C@H](O)[C@@H](O)[C@H]4O)[C@@H](O)[C@H](O)[C@H]3O)cc(O)c2c1=O

>  <Study system>
Prostaglandin G/H synthase 2 (Homo sapiens) (UniProt P35354)

>  <inhibition>
inactive

$$$$
>  <Structure string>
O=C(/C=C/c1ccc(O)c(O)c1)O[C@H]1[C@H](O)[C@@H](CO)O[C@@H](OCCc2ccc(O)cc2)[C@@H]1O[C@@H]1OC[C@](O)(CO)[C@H]1O

>  <Study system>
Prostaglandin G/H synthase 2 (Homo sapiens) (UniProt P35354)

>  <inhibition>
inactive

$$$$
>  <Structure string>
O=C(/C=C/c1ccc(O)c(O)c1)O[C@H]1[C@H](O)[C@@H](O[C@@H]2OC[C@](O)(CO)[C@H]2O)[C@H](OCCc2ccc(O)cc2)O[C@@H]1CO

>  <Study system>
Prostaglandin G/H synthase 2 (Homo sapiens) (UniProt P35354)

>  <inhibition>
inactive

$$$$

Reference source: ChEMBL document CHEMBL1687868
